# credit: ChEMBL document CHEMBL3991601

- Measured On: Bone morphogenetic protein receptor type-2 (Homo sapiens)
- Sequence (Q13873 whole entry): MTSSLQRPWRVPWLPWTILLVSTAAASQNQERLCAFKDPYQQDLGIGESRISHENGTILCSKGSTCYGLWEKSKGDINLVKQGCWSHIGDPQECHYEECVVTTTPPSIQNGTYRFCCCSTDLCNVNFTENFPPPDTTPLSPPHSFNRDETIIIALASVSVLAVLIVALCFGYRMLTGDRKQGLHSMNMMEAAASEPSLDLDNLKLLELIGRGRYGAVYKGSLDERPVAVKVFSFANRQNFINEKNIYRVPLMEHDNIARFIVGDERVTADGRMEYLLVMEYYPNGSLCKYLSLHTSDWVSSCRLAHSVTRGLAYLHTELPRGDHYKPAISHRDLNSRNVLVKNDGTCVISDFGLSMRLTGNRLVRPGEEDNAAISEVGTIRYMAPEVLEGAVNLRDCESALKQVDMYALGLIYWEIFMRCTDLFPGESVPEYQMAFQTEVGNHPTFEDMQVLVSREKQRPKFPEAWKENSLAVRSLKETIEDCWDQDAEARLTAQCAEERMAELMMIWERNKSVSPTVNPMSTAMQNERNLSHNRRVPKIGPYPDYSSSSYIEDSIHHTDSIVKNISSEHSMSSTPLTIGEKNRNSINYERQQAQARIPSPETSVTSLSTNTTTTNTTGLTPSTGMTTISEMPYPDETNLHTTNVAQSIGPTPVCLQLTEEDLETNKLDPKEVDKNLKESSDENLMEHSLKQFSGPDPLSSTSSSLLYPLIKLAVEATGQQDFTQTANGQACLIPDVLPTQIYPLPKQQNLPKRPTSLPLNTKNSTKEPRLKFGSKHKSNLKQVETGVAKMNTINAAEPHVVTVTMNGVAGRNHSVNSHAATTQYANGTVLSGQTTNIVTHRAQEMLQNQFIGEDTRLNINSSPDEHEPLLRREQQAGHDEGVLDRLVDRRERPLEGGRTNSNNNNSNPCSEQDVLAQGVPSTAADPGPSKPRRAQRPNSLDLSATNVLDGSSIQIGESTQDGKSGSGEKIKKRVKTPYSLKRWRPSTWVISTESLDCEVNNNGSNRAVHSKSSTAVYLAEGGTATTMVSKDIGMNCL
Active and inactive are the calls of the source.
Quantity Name: Kd

Please review the following examples before continuing.
C[C@H]1CNCCCN1S(=O)(=O)c1cccc2cncc(F)c12; > 30 µM (inactive)
O=C(Nc1nc2cccc(-c3ccc(CN4CCS(=O)(=O)CC4)cc3)n2n1)C1CC1 [FILGOTINIB]; > 30 µM (inactive)

# context switch: different compound, same Kd
Form field Kd for item CN1CCN(CCOc2cc(OC3CCOCC3)c3c(Nc4c(Cl)ccc5c4OCO5)ncnc3c2)CC1 [SARACATINIB] on Bone morphogenetic protein receptor type-2 (Homo sapiens): > 30 µM (inactive)
